- SYSTEM_UNDER_TEST: T1, human PD-L1 expressed on CHO-K1 cells (Genscript, Cat #M00543) (human, UniProt Q9NZQ7 19-290)
- T1 construct: also called PD-L1 cell line
- TEST_METHOD_NOTES: FACS, CHO-K1/human PD-L1 cells
MEASUREMENT_KIND: Top (best-fit value)

| BINDER | Top (best-fit value) |
| --- | --- |
| 21D1F4D4 (antibody, V domains shown, Mouse mAb from hybridoma culture) VH: QVQLQQPGAEVVRPGASVKLSCKASGYTFTNYWISWVKQRPGQGLEWIGNIYPSDSYTNYNQNFKDKATLTVDKSSSTAYMQLSSPTSEDSAVYYCTTGIITVIATRDDYWGQGTTLTVSS VL: QIVLTQSPAIMSASPGEKVTLTCSASSSVSSSYLYWYQQKPGSSPKLWIYSTSNLASGVPARFSGSGSGTSYSLTVSSMEAEDAASYFCHQWSSYPFTFGSGTKLEIK | 1960 |

Continue with the next binder.
Asked: For the binder 25G1F9F8 (antibody, V domains shown, Mouse mAb from hybridoma culture) VH: EGQLQQSGAELVKPGASVNLSCTASGFNIKDTYIHWVKQRPDQGLEWIGRIAPTNGNAKFHPTFQGKATITADTSSNTAYLQLSSLTSEDTAVYYCTRGGIYYYGTHWYFDVWGAGTTVTVSS VL: DVLMNQTPLSLPVSLGDQASISCRSSQNIVYSDGNTYLEWYLQKPGQSPKLLIFQVSNRFSGVPDRFSGSGSGTDFTLKISRVEAEDLGFYYCFQGSHVPFTFGSGTKLEIK , what Top (best-fit value) is on record?
Given back: 1750
